Biological target: ER-α in MCF-7 cells (Homo sapiens)
Sequence (P03372 whole entry): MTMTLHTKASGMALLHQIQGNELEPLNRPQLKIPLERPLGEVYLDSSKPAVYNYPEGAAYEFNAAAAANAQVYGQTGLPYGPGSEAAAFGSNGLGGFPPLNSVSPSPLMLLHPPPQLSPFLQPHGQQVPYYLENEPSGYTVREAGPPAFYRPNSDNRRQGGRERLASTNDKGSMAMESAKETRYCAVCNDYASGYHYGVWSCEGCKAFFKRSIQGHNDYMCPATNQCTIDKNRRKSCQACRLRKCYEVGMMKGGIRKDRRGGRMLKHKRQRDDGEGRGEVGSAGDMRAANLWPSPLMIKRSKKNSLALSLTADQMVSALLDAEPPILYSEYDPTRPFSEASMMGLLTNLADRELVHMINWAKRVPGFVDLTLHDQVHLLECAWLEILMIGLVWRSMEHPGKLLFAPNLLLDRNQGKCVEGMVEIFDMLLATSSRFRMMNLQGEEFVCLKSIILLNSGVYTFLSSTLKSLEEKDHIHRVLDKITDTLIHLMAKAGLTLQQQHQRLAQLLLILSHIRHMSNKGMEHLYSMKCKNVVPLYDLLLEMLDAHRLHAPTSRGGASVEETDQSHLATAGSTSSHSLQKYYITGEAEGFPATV
Assay: Breast cancer cell ER-α in cell western assay (SP1)
Type: cell-based
Set-up: endogenous in cells; host or cells: MCF-7
Settings: SP1 antibody, 4 or 24 hr post compound addition, read-out: ER-α In Cell Western Assay (SP1) IC50
Observed Property: DC50

Here is how some compounds turned out for DC50.
| Compound | Observed Property | Observed |
| --- | --- | --- |
| CC/C(=C(/c1ccc(/C=C/C(=O)O)cc1)c1ccc2[nH]ncc2c1)c1cccc(Oc2ccncc2)c1 [Compound 366] | DC50 | ≤ 100 nM |
| CC/C(=C(/c1ccc(/C=C/C(=O)NC(C)C)cc1)c1ccc2[nH]ncc2c1)c1ccccc1 [Compound 419] | DC50 | ≤ 100 nM |

# return recorded DC50 for input CC/C(=C(/c1ccc(/C=C/C(=O)O)cc1)c1ccc2[nH]ncc2c1)c1ccc(OCC(=O)O)cc1 [Compound 348]
> 100 nM

Give the reported value of DC50 for this record: CC/C(=C(/c1ccc(OC2(C(=O)O)CC2)cc1)c1ccc2[nH]ncc2c1)c1ccc(F)cc1Cl [Compound 332]
> 100 nM
